assay_method_text: Inhibition of Pseudomonas aeruginosa PA1409 using Boc-Lys(trifluoroacetyl)-AMC as substrate preincubated for 30 mins followed by substrate addition measured after 60 mins by trypsin-based fluorescence assay
# note: boundary value 8 µM maps to -1; Ki below it maps to 1

[[record]]
mol = "CC(=O)Nc1ccc(NC(=O)C(F)(F)C(F)(F)C(F)(F)C(F)(F)C(F)(F)C(F)(F)C(=O)NO)cc1"
class = 1

[[record]]
mol = "O=C(NO)C(F)(F)C(F)(F)C(F)(F)C(F)(F)C(F)(F)C(F)(F)C(=O)Nc1ccc(Cl)cc1"
class = 1

[[record]]
mol = "O=C(NO)C(F)(F)C(F)(F)C(F)(F)C(F)(F)C(F)(F)C(F)(F)C(=O)Nc1ccc2ccc3cccc4ccc1c2c34"
class = -1

[[record]]
mol = "COc1ccc(NC(=O)C(F)(F)C(F)(F)C(F)(F)C(F)(F)C(F)(F)C(F)(F)C(=O)NO)cc1"
class = -1

[[record]]
mol = "O=C(NO)C(F)(F)C(F)(F)C(F)(F)C(F)(F)C(F)(F)C(F)(F)C(=O)Nc1cccc(Cl)c1"
class = -1

[[record]]
mol = "O=C(NO)C(F)(F)C(F)(F)C(F)(F)C(F)(F)C(F)(F)C(F)(F)C(=O)Nc1ccc(-c2ccccc2)cc1"
class = 1

[[record]]
mol = "CN(C)c1ccc(NC(=O)C(F)(F)C(F)(F)C(F)(F)C(F)(F)C(F)(F)C(F)(F)C(=O)NO)cc1"
class = -1

[[record]]
mol = "O=C(NO)C(F)(F)C(F)(F)C(F)(F)C(F)(F)C(F)(F)C(F)(F)C(=O)Nc1cccc(-c2cn(-c3ccccc3)nn2)c1"
class = -1

